# target.under.test: EML4-ALK v3 fusion protein (Homo sapiens, UniProt Q9UM73)
# Construct: endogenous in cells; host or cells: NCI-H2228
# Sequence (Q9UM73 1058-1620 limits assumed): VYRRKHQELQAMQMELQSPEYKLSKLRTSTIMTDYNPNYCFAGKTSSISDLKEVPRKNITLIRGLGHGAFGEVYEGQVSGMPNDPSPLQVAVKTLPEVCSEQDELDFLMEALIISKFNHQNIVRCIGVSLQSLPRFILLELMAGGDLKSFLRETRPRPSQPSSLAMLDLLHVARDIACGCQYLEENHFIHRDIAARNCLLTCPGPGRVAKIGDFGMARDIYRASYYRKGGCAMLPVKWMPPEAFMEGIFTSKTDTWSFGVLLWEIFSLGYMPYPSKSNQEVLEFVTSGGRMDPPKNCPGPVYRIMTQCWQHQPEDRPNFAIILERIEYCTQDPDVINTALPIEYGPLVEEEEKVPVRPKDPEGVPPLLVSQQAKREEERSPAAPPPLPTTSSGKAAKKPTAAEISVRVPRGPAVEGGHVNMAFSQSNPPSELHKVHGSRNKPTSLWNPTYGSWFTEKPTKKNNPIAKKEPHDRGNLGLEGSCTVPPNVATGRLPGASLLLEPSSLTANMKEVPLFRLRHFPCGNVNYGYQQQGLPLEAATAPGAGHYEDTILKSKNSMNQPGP
# assay.overview: Western blot of EML4-ALK v3 fusion protein levels in NCI-H2228 cells
# Type: cell-based
# condition.info: NCI-H2228 cells, 1, 3, 10, 30 or 100 nM, 16 h
parameter: effect on EML4-ALK fusion protein levels, concentration dependence

Cc1cc(Nc2ncc(Cl)c(Nc3ccccc3S(=O)(=O)C(C)C)n2)c(OC(C)C)cc1C1CCN(CC(=O)NCCOCCOCCOCCOCCOCCNc2cccc3c2C(=O)N(C2CCC(=O)N(C)C2=O)C3=O)CC1 (centres unmarked)
no significant effect
Cc1cc(Nc2ncc(Cl)c(Nc3ccccc3S(=O)(=O)C(C)C)n2)c(OC(C)C)cc1C1CCNCC1 [ceritinib, reference compound]
no significant effect
Cc1cc(Nc2ncc(Cl)c(Nc3ccccc3S(=O)(=O)C(C)C)n2)c(OC(C)C)cc1C1CCN(CC(=O)NCCNc2cccc3c2C(=O)N(C2CCC(=O)N(C)C2=O)C3=O)CC1 (centres unmarked)
no significant effect
